Each item that follows carries a reported IC50.
Biological target: recombinant human Tyro3 (Homo sapiens (Human))
Experiment: Tyro3 Enzymatic Assay
Details: radiometric [32P]-ATP kinase assay, Poly(Glu, Tyr) substrate, 2 nM enzyme
Protocol: Poly(Glu, Tyr) sodium salt (Glu:Tyr (4:1), quality level 200, molecular weight 5,000-20,000, obtained from Sigma Aldrich, catalogue #P7244, assay concentration 0.20 mg/mL) and recombinant human Tyro3 (obtained from ThermoFisher Scientific, catalogue #PV3828, assay concentration 2 nM) were mixed in assay buffer (20 mM Hepes pH 7.5, 10 mM MgCl2, […] EGTA, 0.02% Brij35, 0.02 mg/ml BSA, 0.1 mM Na3VO4, 2 mM DTT, 1% DMSO, with added MnCl2 at a final concentration of 2 mM). […]

These recorded examples may help you get a feel for the data.
> print(dat)
                                   molecule  reported.measurement
1  COCCN1CCC(n2cc(-c3cnc4[nH]cc(-c5cccc(F)c5)c4c3)c(OC)n2)CC1      0.051 to 0.15 µM
2  COc1nn(C2CCCN(C)C2)cc1-c1cnc2[nH]cc(-c3cccc(F)c3)c2c1 (stereo not shown)     0.151 to 0.501 µM
3  CCOc1nn(C2CCN(C)CC2)cc1-c1cnc2[nH]cc(-c3ccc(C(F)F)nc3)c2c1             < 0.05 µM

Please find the next molecule below.
Which IC50 value belongs to COc1nn(C2CCN(C)CC2)cc1-c1cnc2[nH]cc(-c3cccc(F)c3)c2c1 ?
< 0.05 µM

###

target: recombinant human Tyro3 (Homo sapiens (Human), UniProt Q06418); test: Tyro3 Enzymatic Assay; type: biochemical; settings: radiometric [32P]-ATP kinase assay, Poly(Glu, Tyr) substrate, 2 nM enzyme
Sequence (Q06418 41-890): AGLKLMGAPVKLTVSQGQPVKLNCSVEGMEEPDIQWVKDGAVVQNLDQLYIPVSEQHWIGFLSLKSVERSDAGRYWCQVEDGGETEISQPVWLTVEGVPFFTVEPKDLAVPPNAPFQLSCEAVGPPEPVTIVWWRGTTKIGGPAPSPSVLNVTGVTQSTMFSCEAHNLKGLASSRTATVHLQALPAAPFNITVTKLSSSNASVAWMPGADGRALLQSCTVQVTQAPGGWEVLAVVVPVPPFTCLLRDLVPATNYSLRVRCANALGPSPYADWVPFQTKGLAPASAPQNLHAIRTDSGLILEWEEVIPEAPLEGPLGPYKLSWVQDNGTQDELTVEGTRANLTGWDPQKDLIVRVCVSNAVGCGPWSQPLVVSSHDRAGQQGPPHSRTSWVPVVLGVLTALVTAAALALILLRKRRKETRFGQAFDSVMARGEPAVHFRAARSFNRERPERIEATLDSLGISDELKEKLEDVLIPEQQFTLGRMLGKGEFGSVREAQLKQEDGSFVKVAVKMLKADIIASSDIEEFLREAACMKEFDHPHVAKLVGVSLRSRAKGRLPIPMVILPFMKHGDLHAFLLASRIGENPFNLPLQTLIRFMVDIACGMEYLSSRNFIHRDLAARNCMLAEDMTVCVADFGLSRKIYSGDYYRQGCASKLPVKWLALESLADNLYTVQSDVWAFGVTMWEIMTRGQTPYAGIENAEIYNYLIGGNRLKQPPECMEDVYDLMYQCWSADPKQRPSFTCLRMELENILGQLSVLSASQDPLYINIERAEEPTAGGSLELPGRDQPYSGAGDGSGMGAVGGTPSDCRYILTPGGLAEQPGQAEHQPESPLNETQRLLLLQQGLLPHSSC
pIC50: −log10 of the molar value.
Measured attribute: pIC50

> print(dat)
                                   compound  measured.attribute  reported.measurement
1  COc1ccc(-c2c[nH]c3ncc(-c4ccnn4C4CCN(C)CC4)cc23)cn1 [Compound 7]               pIC50                < 6.30

Which pIC50 value belongs to COc1ccc(-c2c[nH]c3ncc(-c4cnn(C5CC(OC)C5)c4)cc23)cn1 (stereo not shown) [Compound 33] ?
< 6.30

Which pIC50 value belongs to CCc1[nH]c2ncc(-c3cn(C4CCN(C)CC4)nc3Cl)cc2c1-c1cccc(F)c1 [Compound 26] ?
6.30 to 6.82

Which pIC50 value belongs to COc1nn(C2CCN(C)C2)cc1-c1cnc2[nH]cc(-c3cccc(F)c3)c2c1 (stereo not shown) [Compound 12] ?
> 7.30

###

Each item that follows carries a reported IC50.
biological target: recombinant human Tyro3 (Homo sapiens (Human)); test: Tyro3 Enzymatic Assay; conditions: radiometric [32P]-ATP kinase assay, Poly(Glu, Tyr) substrate, 2 nM enzyme

These recorded examples may help you get a feel for the data.
> print(dat)
                                   compound  measured.attribute  reported.measurement
1  COc1ccc(-c2c[nH]c3ncc(-c4cnn(C5CCN(C)CC5)c4C)cc23)cn1                IC50              > 500 nM
2  COc1ccc(-c2c[nH]c3ncc(-c4cn(C5CCN(C)CC5)nc4OC)cc23)cn1                IC50               < 50 nM
3  COc1ccc(-c2c[nH]c3ncc(-c4cnn(C5CCN(C)CC5)c4)cc23)cn1                IC50         151 to 501 nM
4  COc1nn(C2CCN(C)CC2)cc1-c1cnc2[nH]cc(-c3cccc(C(F)F)c3)c2c1                IC50               < 50 nM
5  CN1CCC(n2cc(-c3cnc4[nH]cc(-c5cccc(C(F)F)c5)c4c3)c(F)n2)CC1                IC50          51 to 150 nM

Please find the next compound below.
Lab note: need IC50 with recombinant human Tyro3 (Homo sapiens (Human)) for entry CCc1[nH]c2ncc(-c3cn(C4CCN(C)CC4)nc3Cl)cc2c1-c1ccc(OC)nc1 , please look it up.
51 to 150 nM

###

target: recombinant human Tyro3 (Homo sapiens (Human)); experiment: Tyro3 Enzymatic Assay; details: radiometric [32P]-ATP kinase assay, Poly(Glu, Tyr) substrate, 2 nM enzyme
pIC50: −log10 of the molar value.
Each item that follows carries a reported pIC50.

These recorded examples may help you get a feel for the data.
> print(dat)
                                   compound                            assayed.system  reported.measurement
1  COc1nn(C2CCN(C)CC2)cc1-c1cnc2[nH]cc(-c3ccnc(C(F)F)c3)c2c1 [Compound 20]  recombinant human Tyro3 (Homo sapiens (Human))                > 7.30
2  COc1nn(C2CN(C)C2)cc1-c1cnc2[nH]cc(-c3cccc(F)c3)c2c1 [Compound 13]  recombinant human Tyro3 (Homo sapiens (Human))                > 7.30
3  COc1nn(C2CCCN(C)CC2)cc1-c1cnc2[nH]cc(-c3cccc(F)c3)c2c1 (stereo not drawn) [Compound 14]  recombinant human Tyro3 (Homo sapiens (Human))                > 7.30
4  CCc1[nH]c2ncc(-c3cn(C4CCN(C)CC4)nc3OC)cc2c1-c1cccc(C(F)F)c1 [Compound 27]  recombinant human Tyro3 (Homo sapiens (Human))          6.82 to 7.29
5  CN1CCC(n2cc(-c3cnc4[nH]cc(-c5cccc(C(F)F)c5)c4c3)c(Cl)n2)CC1 [Compound 18]  recombinant human Tyro3 (Homo sapiens (Human))                > 7.30

Which pIC50 value belongs to CN1CCC(n2cc(-c3cnc4[nH]cc(-c5cccc(F)c5)c4c3)c(Cl)n2)CC1 [Compound 11] ?
> 7.30
